The measurements presented in this section are drawn from patent US20160376333A1.

- assayed system: T1, Epstein-Barr virus BHRF1 a.a. 1-161 with C-terminal avi-6his tag (Epstein-Barr virus)
- T1 construct: also called EBV BHRF1; BHRF1-biotin
- T1 chain: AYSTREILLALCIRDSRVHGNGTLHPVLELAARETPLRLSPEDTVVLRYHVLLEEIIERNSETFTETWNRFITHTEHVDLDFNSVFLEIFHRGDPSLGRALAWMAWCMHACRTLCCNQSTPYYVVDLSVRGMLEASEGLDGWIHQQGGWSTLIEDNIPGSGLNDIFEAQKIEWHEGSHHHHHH
- protocol: yeast display library, FACS sort at 400 nM BHRF1, deep sequencing

{"binder": "Index 63 (designed binder) GDDKEKVKDYAKKRALEDVLRAKELAEKFIDEAKKSDHSKQNERQYIIAWIAFMLMAIGDVFNAMMEAKRLAELLKRLGLRRWEEAEEVKQKAEELAEEASRLLADLGKDFAKKIEQG", "measurement units": "log2", "Log2 enrichment ratio": -2.41}
{"binder": "Index 33 (designed binder) GKQWQEAFEEARRRIEEKAREFEDRAKKEALLHLFFIPHDKEIADNSKKWIAWALMLIGDIFNLEEEAAERARRHVKRGEISEDDAKQIRKRLQEQAKRAAWWMRYWGEESAKFAFIG", "measurement units": "log2", "Log2 enrichment ratio": -3.85}
